FYI, the data here is from patent US11518761B2.

- systemUnderTest: T. gondii CDPK1 (tgCDPK1) (Toxoplasma gondii, UniProt Q9BJF5)
- Sequence (Q9BJF5 1-507): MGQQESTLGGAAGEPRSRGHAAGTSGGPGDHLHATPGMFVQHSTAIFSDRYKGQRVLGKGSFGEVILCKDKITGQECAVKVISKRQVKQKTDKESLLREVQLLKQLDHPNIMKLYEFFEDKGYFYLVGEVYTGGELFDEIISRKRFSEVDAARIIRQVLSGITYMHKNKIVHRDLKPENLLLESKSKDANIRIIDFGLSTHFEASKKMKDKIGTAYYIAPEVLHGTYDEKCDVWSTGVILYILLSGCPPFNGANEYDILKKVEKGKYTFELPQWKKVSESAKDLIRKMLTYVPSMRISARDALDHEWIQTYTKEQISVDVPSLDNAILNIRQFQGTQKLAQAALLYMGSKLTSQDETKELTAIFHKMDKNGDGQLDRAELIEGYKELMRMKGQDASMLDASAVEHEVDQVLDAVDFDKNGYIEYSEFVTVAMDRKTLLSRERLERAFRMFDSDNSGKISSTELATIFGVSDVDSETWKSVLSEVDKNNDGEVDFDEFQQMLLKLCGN
- procedureDetails: biochemical
- recordedConditions: at least three independent replicates
Classification by IC50 | ranges: low range: < 20 nM; mid range: ≥ 20 nM and < 30 nM; high range: ≥ 30 nM

{"columns": ["smi", "systemUnderTest", "label"],
 "data": [
  ["Nc1ncnc2c1c(Cc1cccc(F)c1)nn2[C@H]1C[C@@H](O)C1", "T. gondii CDPK1 (tgCDPK1) (Toxoplasma gondii, UniProt Q9BJF5)", "mid range"],
  ["Nc1ncnc2c1c(Oc1cccc(F)c1)nn2[C@H]1C[C@H](O)C1", "T. gondii CDPK1 (tgCDPK1) (Toxoplasma gondii, UniProt Q9BJF5)", "high range"],
  ["Nc1ncnc2c1c(Cc1c[nH]c3ccc(F)cc13)nn2[C@H]1C[C@H](O)C1", "T. gondii CDPK1 (tgCDPK1) (Toxoplasma gondii, UniProt Q9BJF5)", "low range"],
  ["Nc1ncnc2c1c(Cc1cccc(Cl)c1)nn2[C@H]1C[C@@H](O)C1", "T. gondii CDPK1 (tgCDPK1) (Toxoplasma gondii, UniProt Q9BJF5)", "low range"],
  ["Nc1ncnc2c1c(Oc1cccc(Cl)c1)nn2[C@H]1C[C@@H](O)C1", "T. gondii CDPK1 (tgCDPK1) (Toxoplasma gondii, UniProt Q9BJF5)", "mid range"],
  ["Nc1ncnc2c1c(Oc1cc(Cl)ccn1)nn2[C@H]1C[C@H](F)C1", "T. gondii CDPK1 (tgCDPK1) (Toxoplasma gondii, UniProt Q9BJF5)", "low range"],
  ["Nc1ncnc2c1c(Oc1cc(C(F)(F)F)ccn1)nn2C1CC1", "T. gondii CDPK1 (tgCDPK1) (Toxoplasma gondii, UniProt Q9BJF5)", "low range"],
  ["Nc1ncnc2c1c(Oc1cccc(F)c1)nn2[C@H]1C[C@@H](O)C1", "T. gondii CDPK1 (tgCDPK1) (Toxoplasma gondii, UniProt Q9BJF5)", "high range"],
  ["Nc1ncnc2c1c(Oc1cccc(C(F)(F)F)c1)nn2[C@H]1C[C@H](F)C1", "T. gondii CDPK1 (tgCDPK1) (Toxoplasma gondii, UniProt Q9BJF5)", "mid range"]
]}
